molecular target: human RORγ-LBD (Homo sapiens, UniProt P51449); construct: made in house; host or cells: E. coli (BL-21); assay: ROR gamma coactivator peptide recruitment Alphascreen assay (RORγ-LBD binding to GRIP1 coactivator peptide); type: biochemical; details: 5 nM human RORγ-LBD, 30 nM 7-β-hydroxycholesterol, 50 nM biotinylated GRIP1 coactivator peptide, overnight incubation at room temperature; read-out: result (pIC50, RORγ coactivator peptide recruitment Alphascreen assay) (converted)
Sequence (P51449 262-518): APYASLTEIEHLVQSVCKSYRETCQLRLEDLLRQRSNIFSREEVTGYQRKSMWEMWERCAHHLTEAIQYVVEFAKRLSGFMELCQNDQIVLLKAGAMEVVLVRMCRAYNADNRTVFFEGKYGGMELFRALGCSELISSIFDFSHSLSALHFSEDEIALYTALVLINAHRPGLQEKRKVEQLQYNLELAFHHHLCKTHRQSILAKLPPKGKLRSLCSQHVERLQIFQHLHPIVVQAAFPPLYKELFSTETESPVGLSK
readout_kind: IC50 (nM)
Expressed in nM, but write only the number.

C[C@]1(C(=O)O)CC[C@H](n2ncc(C(=O)N(CC(=O)c3c(Cl)cncc3Cl)C3CC4(CCC4)C3)c2C(F)(F)F)CC1 = 8.13
Cc1cc(Cl)c(C(=O)CN(C[C@@H]2CC2(C)C)C(=O)c2cnn([C@H]3CC[C@](C)(C(=O)O)CC3)c2C(F)(F)F)c(Cl)c1 = 1
Cc1ccccc1CCN(Cc1ccc(Cl)cc1)C(=O)c1cnn([C@H]2CC[C@H](C(=O)O)CC2)c1C(F)(F)F = 11.5
C[C@@H]1C[C@H](n2ncc(C(=O)N(CC(=O)c3c(Cl)cncc3Cl)CC(C)(C)C(F)(F)F)c2C(F)(F)F)CC[C@H]1C(=O)O = 3.89
C[C@@H]1C[C@H](n2ncc(C(=O)N(CC(=O)c3c(Cl)cccc3Cl)CC3CC(C)(C)C3)c2C(F)(F)F)CC[C@@H]1C(=O)O [Example 570] = 18.6

Challenge: Under human RORγ-LBD (Homo sapiens, UniProt P51449): IC50 value of "C[C@]1(C(=O)O)CC[C@H](n2ncc(C(=O)N(CC(=O)c3c(Cl)cncc3Cl)CC3(F)CCCCC3)c2C(F)(F)F)CC1" ?
Response given: 4.57

Challenge: Under human RORγ-LBD (Homo sapiens, UniProt P51449): IC50 value of "C[C@@H]1C[C@@H](n2ncc(C(=O)N(CC(=O)c3c(Cl)cncc3Cl)CC3(C)CCC3)c2C(F)(F)F)CC[C@@H]1C(=O)O" ?
Response given: 3.98

Challenge: Under human RORγ-LBD (Homo sapiens, UniProt P51449): IC50 value of "CC(C)CCN(CC(=O)c1c(Cl)cccc1Cl)C(=O)c1cnn([C@H]2CC[C@](C)(C(=O)O)CC2)c1C(F)(F)F" ?
Response given: 4.79

Challenge: Under human RORγ-LBD (Homo sapiens, UniProt P51449): IC50 value of "COc1cc(Cl)c(C(=O)CN(CC2CC(C)(C)C2)C(=O)c2cnn([C@H]3CC[C@](C)(C(=O)O)CC3)c2C(F)(F)F)c(Cl)c1" ?
Response given: 3.47

Challenge: Under human RORγ-LBD (Homo sapiens, UniProt P51449): IC50 value of "CC(C)CCN(CC(=O)c1c(Cl)cccc1Cl)C(=O)c1cnn([C@H]2CC[C@H](C(=O)O)[C@H](C)C2)c1C(F)(F)F" ?
Response given: 53.7

---

biological target: ligand binding domain of human ROR gamma (Homo sapiens, UniProt P51449); construct: NM_001001523; expressed in transfected cells; host or cells: HEK293T; assay: ROR gamma reporter gene assay (GAL4-RORγ LBD luciferase, Dual-Glo); format: cell-based; conditions: HEK293T cells transfected with pM-ROR gamma, 8 concentrations 3.5 nM to 10.5 μM, 24 h incubation; read-out: result (pIC50, inhibition of RORγ transcriptional activity) (converted)
hey, just use Yes if measured IC50 is less than 60000 pM, otherwise No

CC(C)(C)O[C@H]1C[C@@H](N(CC(=O)c2c(Cl)cncc2Cl)C(=O)c2cnn([C@H]3CC[C@H](C(=O)O)CC3)c2C(F)(F)F)C1 [Example 155] = No
O=C(CN(C(=O)c1cnn([C@H]2CC[C@H](C(=O)O)CC2)c1C(F)(F)F)C1CCCCC1)c1c(Cl)cncc1Cl [Example 174] = No
O=C(CN(Cc1cc(F)cc(F)c1)C(=O)c1cnn([C@H]2CC[C@H](C(=O)O)CC2)c1C(F)(F)F)c1c(Cl)cc(C2CC2)cc1Cl [Example 66] = No
COc1cc(Cl)c(C(=O)CN(Cc2cc(F)cc(F)c2)C(=O)c2cnn([C@H]3CC[C@H](C(=O)O)CC3)c2C(F)(F)F)c(Cl)c1 [Example 67] = Yes
CC1(C)CCC(CN(CC(=O)c2c(Cl)cc(F)cc2Cl)C(=O)c2cnn([C@H]3CC[C@](C)(C(=O)O)CC3)c2C(F)(F)F)CC1 [Example 220] = No
CC1(C)[C@@H]2C[C@H](N(CC(=O)c3c(F)cncc3Cl)C(=O)c3cnn(C45CCC(C(=O)O)(CC4)CC5)c3C(F)(F)F)C[C@@H]21 [Example 335] = Yes
CC(C)c1c(C(=O)N(CC(=O)c2c(Cl)cncc2Cl)Cc2cc(F)cc(F)c2)cnn1[C@H]1CC[C@H](C(=O)O)CC1 [Example 162] = No
CC(CN(Cc1ccc(F)cc1)C(=O)c1cnn([C@H]2CC[C@H](C(=O)O)CC2)c1C(F)(F)F)c1c(Cl)cccc1Cl (stereo partly drawn) [Example 100] = No
COc1cccc(Cl)c1C(=O)CN(C(=O)c1cnn([C@H]2CC[C@](C)(C(=O)O)CC2)c1C(F)(F)F)[C@H]1C[C@@H]2[C@H](C1)C2(C)C [Example 232] = Yes
CC(COC(C)(C)C)N(CC(=O)c1c(Cl)cncc1Cl)C(=O)c1cnn([C@H]2CC[C@](C)(C(=O)O)CC2)c1C(F)(F)F (stereo partly drawn) [Example 332] = No

Challenge: Dear reviewer, please state whether CN1C(C)(C)CC(N(CC(=O)c2c(Cl)cncc2Cl)C(=O)c2cnn([C@H]3CC[C@](C)(C(=O)O)CC3)c2C(F)(F)F)CC1(C)C [Example 311] has IC50 strictly beneath 60000 pM.
Response given: No

Challenge: Dear reviewer, please state whether O=C(CN(CC1(C(F)(F)F)CC1)C(=O)c1cnn(C23CCC(C(=O)O)(CC2)CC3)c1C(F)(F)F)c1c(Cl)cncc1Cl [Example 329] has IC50 strictly beneath 60000 pM.
Response given: Yes
